- Test details: xn = mol fraction of the nth substance listed, in the solute-free solvent
- Assay setup: 303.15 K; x2 = 0.6
Threshold check on solubility (g/100 g solution): at or above 9 gives Met, strictly below gives Not met.

Example entries begin here.
>  <Compound>
Cc1nc(C)c(C)nc1C + CCCCO + CC#N

>  <Discrete label>
Met

$$$$
>  <Compound>
Cl.NC(C=O)C(O)C(O)C(O)CO (centres undefined) + O + CCO

>  <Discrete label>
Not met

$$$$
>  <Compound>
O=CC(O)C(O)C(O)CO (centres undefined) + CCO + CCCCCC

>  <Discrete label>
Not met

$$$$

Could you verify whether the entry Cl.NC(C=O)C(O)C(O)C(O)CO (centres undefined) + O + CO shows solubility (g/100 g solution) of no less than 9?
Not met

Could you verify whether the entry O=c1cc(-c2ccccc2)oc2cc(O)c(O)c(O)c12 + CCO + O shows solubility (g/100 g solution) of no less than 9?
Not met

Could you verify whether the entry Cc1nc(C)c(C)nc1C + CO + CC#N shows solubility (g/100 g solution) of no less than 9?
Met

Could you verify whether the entry O=CC(O)C(O)C(O)CO (centres undefined) + CC(C)O + CCCCCC shows solubility (g/100 g solution) of no less than 9?
Not met

Could you verify whether the entry O=CC(O)C(O)C(O)CO (centres undefined) + CCO + ClCCl shows solubility (g/100 g solution) of no less than 9?
Not met
